assay: Stability of the compounds in aqueous solutions (HPLC residual content); type: physicochemical; conditions: water
Where a name gives a salt, the structure may show the parent alone.
Quantity name: remaining at 24 h (%)

molecule="N=C(N)NCCCCCCC(=O)NCCC(=O)NCCCCNCCCN [Compound 6, trihydrochloride]" measured=100
molecule="N=C(N)NCCCCCCC(=O)N[C@@H](Cc1ccccc1)C(=O)NCCCCNCCCN [Compound 13, trihydrochloride]" measured=99.5
molecule="C[C@H](NC(=O)CCCCCCNC(=N)N)C(=O)NCCCCNCCCN [Compound 5, trihydrochloride]" measured=99.8

The values you see were collected from patent US4529549A.
